The measurements presented in this section are drawn from the MegaScale stability set (Tsuboyama et al. 2023).

B1: EHEE_rd4_0086 (parent)
chain: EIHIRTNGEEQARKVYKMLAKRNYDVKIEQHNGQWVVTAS

variants of: B1; experiment: folding stability dG (cDNA display proteolysis); higher = more stable; conditions: PBS, room temperature
Assign class by folding stability dG: not lower than 1 kcal/mol means YES; lower than 1 kcal/mol means NO.

Study these solved cases before continuing.
> print(dat)
    mut  class.label
1  I28A           NO
2  W35Y           NO
3  V26S           NO

QUERY: Test whether the variant A12C records folding stability dG of 1 kcal/mol or higher.
RESULT: YES

QUERY: Test whether the variant M18D records folding stability dG of 1 kcal/mol or higher.
RESULT: YES

QUERY: Test whether the variant I4Q records folding stability dG of 1 kcal/mol or higher.
RESULT: NO

QUERY: Test whether the variant K27T records folding stability dG of 1 kcal/mol or higher.
RESULT: YES

QUERY: Test whether the variant E1K records folding stability dG of 1 kcal/mol or higher.
RESULT: YES

QUERY: Test whether the variant D25E records folding stability dG of 1 kcal/mol or higher.
RESULT: YES

QUERY: Test whether the variant Q11A records folding stability dG of 1 kcal/mol or higher.
RESULT: YES

QUERY: Test whether the variant N32I records folding stability dG of 1 kcal/mol or higher.
RESULT: NO

QUERY: Test whether the variant Q30A records folding stability dG of 1 kcal/mol or higher.
RESULT: YES

QUERY: Test whether the variant T6M records folding stability dG of 1 kcal/mol or higher.
RESULT: YES

QUERY: Test whether the variant S40T records folding stability dG of 1 kcal/mol or higher.
RESULT: YES

QUERY: Test whether the variant V26G records folding stability dG of 1 kcal/mol or higher.
RESULT: NO

QUERY: Test whether the variant V15Q records folding stability dG of 1 kcal/mol or higher.
RESULT: NO

QUERY: Test whether the variant K21E records folding stability dG of 1 kcal/mol or higher.
RESULT: YES

QUERY: Test whether the variant K17R records folding stability dG of 1 kcal/mol or higher.
RESULT: YES

QUERY: Test whether the variant A39L records folding stability dG of 1 kcal/mol or higher.
RESULT: YES
